- ASSAY: Rat pharmacokinetics
- Format: in vivo, Rat (male, SD)
- APPLIED_CONDITIONS: male, Sprague Dawley, whole blood, po, 300 mg/kg
QUANTITY_KIND: Cmax (ng/mL)

COMPOUND: C[C@H]1CN(c2n[nH]c3nc(N[C@H]4CC[C@H](NS(=O)(=O)CCC(F)(F)F)CC4)ncc23)CCO1 [Compound 7]
QUANTITY_KIND: Cmax
READOUT_UNIT: ng/mL
READING: 14800

----------
- ASSAY: Rat pharmacokinetics
- Assay type: in vivo, Rat (male, SD)
- APPLIED_CONDITIONS: male, Sprague Dawley, whole blood, po, 300 mg/kg

CHEMICAL_STRUCTURE: C[C@H]1CN(c2n[nH]c3nc(N[C@H]4CC[C@H](NS(=O)(=O)CCC(F)(F)F)CC4)ncc23)CCO1
AUC(0-inf), µg·h/mL: 136
